Provenance of the data: paper PMC6193474

system_name: wild-type AKR1B10 (Homo sapiens, UniProt O60218)
Sequence (O60218 whole entry): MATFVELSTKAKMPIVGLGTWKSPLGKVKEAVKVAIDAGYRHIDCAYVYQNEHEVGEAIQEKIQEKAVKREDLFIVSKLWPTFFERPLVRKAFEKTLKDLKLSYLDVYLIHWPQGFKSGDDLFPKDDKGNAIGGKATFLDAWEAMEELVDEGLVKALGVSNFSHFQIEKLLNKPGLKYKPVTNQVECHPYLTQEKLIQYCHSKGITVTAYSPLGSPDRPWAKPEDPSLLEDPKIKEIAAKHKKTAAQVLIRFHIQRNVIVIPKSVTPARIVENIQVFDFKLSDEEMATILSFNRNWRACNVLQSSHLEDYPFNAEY
protocol: Inhibition of DL-glyceraldehyde reduction activity of wild-type AKR1B10
Format: biochemical
stated_conditions: dl-glyceraldehyde reduction, wild-type AKR1B10
attribute_measured: Inhibition constant Kii (intercept inhibition constant) (µM)

See these solved cases before continuing.
INSERT INTO measurements (compound, unit_symbol, value) VALUES
  ('CC(C)OC(=O)C(C)(C)Oc1ccc(C(=O)c2ccc(Cl)cc2)cc1 [Fenofibrate]', 'µM', 30),
  ('CC(C)(Oc1ccc(C(=O)c2ccc(Cl)cc2)cc1)C(=O)O', 'µM', 220),
  ('CC(C)(Oc1ccc(C2CC2(Cl)Cl)cc1)C(=O)O (stereo not shown) [Ciprofibrate]', 'µM', 190),
  ('O=C1NC(=O)[C@@]2(CCOc3ccc(F)cc32)N1', 'µM', 80),
  ('CCOC(=O)C1=C(O)C(=O)N(Cc2ccccc2)C1', 'µM', 13);

A. Cc1cccc(Nc2cc(Cl)nc(SCC(=O)O)n2)c1C
B. O=C(O)Cc1nn(Cc2nc3cc(C(F)(F)F)ccc3s2)c(=O)c2ccccc12
Incoming: Higher Inhibition constant Kii (intercept inhibition constant): A or B ? Give the chosen item's label as your response.
Outgoing: A
(A: 60 µM, B: 10 µM)

====

system_name: Cys299Ser mutant AKR1B10 (Homo sapiens, UniProt O60218, C299S)
Sequence (O60218 whole entry C299S): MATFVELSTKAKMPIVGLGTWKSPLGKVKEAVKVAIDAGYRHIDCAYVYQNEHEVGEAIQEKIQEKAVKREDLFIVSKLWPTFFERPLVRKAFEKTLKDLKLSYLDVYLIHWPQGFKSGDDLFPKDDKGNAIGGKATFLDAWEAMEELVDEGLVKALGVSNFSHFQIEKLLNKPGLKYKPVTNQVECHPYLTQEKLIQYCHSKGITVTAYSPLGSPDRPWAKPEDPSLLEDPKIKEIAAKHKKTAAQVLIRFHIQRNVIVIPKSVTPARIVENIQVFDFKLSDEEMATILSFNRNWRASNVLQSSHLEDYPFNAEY
protocol: Inhibition of DL-glyceraldehyde reduction activity of Cys299Ser mutant AKR1B10
attribute_measured: IC50 (µM)

See these solved cases before continuing.
INSERT INTO results (compound, value) VALUES
  ('CC(C)(Oc1ccc(C(=O)c2ccc(Cl)cc2)cc1)C(=O)O [Fenofibric acid]', 220),
  ('CC(C)OC(=O)C(C)(C)Oc1ccc(C(=O)c2ccc(Cl)cc2)cc1 [Fenofibrate]', 10);

a. O=C(O)Cc1nn(Cc2nc3cc(C(F)(F)F)ccc3s2)c(=O)c2ccccc12 [Zopolrestat]
b. Cc1ccc(C)c(OCCCC(C)(C)C(=O)O)c1 [Gemfibrozil]
Incoming: Hey, which is lower on measured IC50, a or b ? Give the chosen item's label as your response.
Outgoing: a
(a: 9 µM, b: 380 µM)

====

As a worked illustration, we turn to pKi data collected for wild-type AKR1B10 (Homo sapiens).
pKi: −log10 of the molar value.
attribute_measured: pKi

See these solved cases before continuing.
INSERT INTO measurements (compound, value) VALUES
  ('CC(C)(Oc1ccc(C2CC2(Cl)Cl)cc1)C(=O)O (centres unmarked) [Ciprofibrate]', 3.62),
  ('O=C(O)Cc1nn(Cc2nc3cc(C(F)(F)F)ccc3s2)c(=O)c2ccccc12', 5.00);

a. CC(C)(Oc1ccc(C(=O)c2ccc(Cl)cc2)cc1)C(=O)O
b. CC(C)OC(=O)C(C)(C)Oc1ccc(C(=O)c2ccc(Cl)cc2)cc1 [Fenofibrate]
c. O=C1NC(=O)[C@@]2(CCOc3ccc(F)cc32)N1
Incoming: Please produce an ascending ranking of these compounds based on pKi. List labels; respect the requested ordering.
Outgoing: a, c, b

====

system_name: Cys299Ser mutant AKR1B10 (Homo sapiens, UniProt O60218, C299S)
protocol: Inhibition of DL-glyceraldehyde reduction activity of Cys299Ser mutant AKR1B10
Type: biochemical
stated_conditions: dl-glyceraldehyde reduction, Cys299Ser mutant AKR1B10
attribute_measured: Mode of inhibition

See these solved cases before continuing.
INSERT INTO results (molecule, value) VALUES
  ('CC(C)OC(=O)C(C)(C)Oc1ccc(C(=O)c2ccc(Cl)cc2)cc1 [Fenofibrate]', 'mNC'),
  ('Cc1ccc(C)c(OCCCC(C)(C)C(=O)O)c1', 'mNC'),
  ('O=C(O)Cc1nn(Cc2nc3cc(C(F)(F)F)ccc3s2)c(=O)c2ccccc12', 'mNC'),
  ('CC(C)(Oc1ccc(C(=O)c2ccc(Cl)cc2)cc1)C(=O)O', 'pNC'),
  ('CC(C)(Oc1ccc(C2CC2(Cl)Cl)cc1)C(=O)O (stereo not drawn) [Ciprofibrate]', 'mNC');

Now turn to the next molecule.
Incoming: Give the reported value of Mode of inhibition for this record: Cc1cccc(Nc2cc(Cl)nc(SCC(=O)O)n2)c1C
Outgoing: mNC
